# System Under Test: endogenous kinases and other proteins enriched by Kinobeads from mixed cancer cell lysates (Homo sapiens, UniProt Q7KZI7)
# Construct: endogenous in cells
# Sequence (Q7KZI7 whole entry): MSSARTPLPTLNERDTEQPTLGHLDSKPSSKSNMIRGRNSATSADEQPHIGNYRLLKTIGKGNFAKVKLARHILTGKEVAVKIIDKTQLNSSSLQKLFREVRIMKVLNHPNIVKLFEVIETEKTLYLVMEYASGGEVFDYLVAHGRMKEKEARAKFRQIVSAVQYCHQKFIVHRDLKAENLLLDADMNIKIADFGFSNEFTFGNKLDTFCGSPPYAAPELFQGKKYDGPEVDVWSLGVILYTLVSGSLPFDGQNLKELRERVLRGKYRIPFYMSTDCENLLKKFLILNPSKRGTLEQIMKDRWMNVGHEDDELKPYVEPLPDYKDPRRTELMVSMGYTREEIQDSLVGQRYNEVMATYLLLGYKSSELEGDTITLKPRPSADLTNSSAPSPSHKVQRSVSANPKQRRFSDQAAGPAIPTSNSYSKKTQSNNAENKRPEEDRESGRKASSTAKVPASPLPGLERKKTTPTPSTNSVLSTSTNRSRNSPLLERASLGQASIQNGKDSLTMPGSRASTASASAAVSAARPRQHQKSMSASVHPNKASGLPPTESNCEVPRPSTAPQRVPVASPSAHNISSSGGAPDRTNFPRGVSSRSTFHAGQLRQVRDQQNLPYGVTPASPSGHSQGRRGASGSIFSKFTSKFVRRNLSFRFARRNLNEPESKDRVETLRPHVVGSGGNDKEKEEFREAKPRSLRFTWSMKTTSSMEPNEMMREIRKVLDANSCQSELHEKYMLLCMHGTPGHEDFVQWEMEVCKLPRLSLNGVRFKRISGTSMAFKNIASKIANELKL
# Procedure Summary: Kinobeads pulldown, full dose-response (eight doses)
# Format: binding
# Experimental Context: target MARK2; read-out: apparent Kd
Readout Type: pKd
Quick note: pKd values are minus log10 of concentrations in mol/L.

Which pKd is listed for Cn1cc(-c2nc(N[C@@H]3CCCC[C@@H]3N)c(F)c3c2C(=O)NC3)cn1 [TAK659] ?
6.12

====

# System Under Test: PRKACG (Homo sapiens, UniProt P22612)
# Construct: endogenous in cells
# Sequence (P22612 whole entry): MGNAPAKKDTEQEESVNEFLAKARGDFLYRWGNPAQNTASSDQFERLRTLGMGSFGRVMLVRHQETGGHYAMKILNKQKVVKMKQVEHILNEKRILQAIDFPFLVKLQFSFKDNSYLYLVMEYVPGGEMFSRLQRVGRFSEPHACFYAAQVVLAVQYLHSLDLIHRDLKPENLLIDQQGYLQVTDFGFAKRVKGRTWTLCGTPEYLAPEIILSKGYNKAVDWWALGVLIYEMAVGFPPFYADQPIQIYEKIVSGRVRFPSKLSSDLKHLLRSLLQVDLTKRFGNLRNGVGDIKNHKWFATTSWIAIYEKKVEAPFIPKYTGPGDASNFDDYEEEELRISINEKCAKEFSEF
# Procedure Summary: Kinobeads full dose-response competition binding: PRKACG
# Experimental Context: Gene Name PRKACG; EC50 with Correction, doses in nM; read-out: apparent Kd
Readout Type: Kd (nM)
Write the number in nM without appending the unit.

Look up Kd: CCn1c(-c2nonc2N)nc2c(C#CC(C)(C)O)nc(OCCNC)cc21 [GSK949675A]
262

====

# System Under Test: CAMKK2 (Homo sapiens)
# Construct: endogenous in cells
# Sequence (Q96RR4 whole entry): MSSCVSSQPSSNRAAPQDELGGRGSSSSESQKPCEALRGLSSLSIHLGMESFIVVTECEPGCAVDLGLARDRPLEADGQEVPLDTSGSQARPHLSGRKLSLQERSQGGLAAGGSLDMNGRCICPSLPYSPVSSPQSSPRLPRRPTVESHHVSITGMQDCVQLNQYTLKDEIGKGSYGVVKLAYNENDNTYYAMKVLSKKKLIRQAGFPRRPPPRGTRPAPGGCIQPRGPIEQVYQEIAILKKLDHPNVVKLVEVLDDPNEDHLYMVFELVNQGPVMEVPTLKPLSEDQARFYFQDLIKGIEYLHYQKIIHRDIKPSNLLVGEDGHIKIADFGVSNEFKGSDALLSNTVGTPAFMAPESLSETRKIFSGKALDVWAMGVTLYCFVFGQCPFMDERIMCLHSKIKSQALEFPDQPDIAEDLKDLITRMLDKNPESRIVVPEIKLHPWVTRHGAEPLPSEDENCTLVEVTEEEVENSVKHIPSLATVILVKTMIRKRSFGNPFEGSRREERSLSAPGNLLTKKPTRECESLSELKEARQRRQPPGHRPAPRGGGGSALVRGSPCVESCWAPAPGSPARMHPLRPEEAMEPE
# Procedure Summary: Kinobeads competition binding: CAMKK2
# Experimental Context: target CAMKK2
Readout Type: CATDS

Which measured CATDS value corresponds to Nc1ncnc2[nH]c(-c3ccccc3)nc12 [AH5015_KCGS] ?
0

Any idea what CATDS was measured for N#CC1(c2ccc(NC(=O)c3cccnc3NCc3ccncc3)cc2)CCCC1 [Apatinib] ?
0

Look up CATDS for this compound: CN(C)C/C=C/C(=O)Nc1cc2c(Nc3ccc(F)c(Cl)c3)ncnc2cc1O[C@H]1CCOC1 [Afatinib]
0

Please look up its CATDS: CCN1CCN(Cc2ccc(Nc3ncc(F)c(-c4cc(F)c5nc(C)n(C(C)C)c5c4)n3)nc2)CC1 [Abemaciclib]
0

Need CATDS, item CCc1cc2c(cc1N1CCC(N3CCOCC3)CC1)C(C)(C)c1[nH]c3cc(C#N)ccc3c1C2=O [Alectinib]
0

====

# System Under Test: endogenous kinases and other proteins enriched by Kinobeads from mixed cancer cell lysates (Homo sapiens, UniProt Q13188)
# Construct: endogenous in cells
# Sequence (Q13188 1-491): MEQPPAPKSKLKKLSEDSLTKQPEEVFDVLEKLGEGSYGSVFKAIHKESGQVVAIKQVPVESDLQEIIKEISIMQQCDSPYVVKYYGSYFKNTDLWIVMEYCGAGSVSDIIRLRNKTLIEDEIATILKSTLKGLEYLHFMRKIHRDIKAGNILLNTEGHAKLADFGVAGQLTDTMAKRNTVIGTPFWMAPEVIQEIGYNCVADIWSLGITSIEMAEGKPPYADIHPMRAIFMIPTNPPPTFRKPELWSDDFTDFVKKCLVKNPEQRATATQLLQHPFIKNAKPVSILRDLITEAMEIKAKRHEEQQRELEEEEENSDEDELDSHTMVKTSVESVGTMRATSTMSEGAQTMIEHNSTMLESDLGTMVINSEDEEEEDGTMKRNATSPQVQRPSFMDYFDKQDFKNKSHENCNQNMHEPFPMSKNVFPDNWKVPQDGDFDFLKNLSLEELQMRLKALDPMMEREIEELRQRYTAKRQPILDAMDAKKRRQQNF
# Procedure Summary: Kinobeads pulldown, full dose-response (eight doses);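 also: competition with Kinobeads ε after inhibitor preincubation in lysate (5 mg/ml protein) for 45 min at 4 °C, DMSO control, doses 0.3–1,000 nM, label-free LC–MS/MS quantification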
# Experimental Context: target STK3
Readout Type: pEC50
A value of pEC50 is the negative decimal logarithm of a concentration given in moles per litre.

What value of pEC50 has been reported for the following compound? Cn1cc(-c2nc(N[C@@H]3CCCC[C@@H]3N)c(F)c3c2C(=O)NC3)cn1
6.13

====

# System Under Test: GSK3B (Homo sapiens)
# Construct: endogenous in cells
# Sequence (P49841 whole entry): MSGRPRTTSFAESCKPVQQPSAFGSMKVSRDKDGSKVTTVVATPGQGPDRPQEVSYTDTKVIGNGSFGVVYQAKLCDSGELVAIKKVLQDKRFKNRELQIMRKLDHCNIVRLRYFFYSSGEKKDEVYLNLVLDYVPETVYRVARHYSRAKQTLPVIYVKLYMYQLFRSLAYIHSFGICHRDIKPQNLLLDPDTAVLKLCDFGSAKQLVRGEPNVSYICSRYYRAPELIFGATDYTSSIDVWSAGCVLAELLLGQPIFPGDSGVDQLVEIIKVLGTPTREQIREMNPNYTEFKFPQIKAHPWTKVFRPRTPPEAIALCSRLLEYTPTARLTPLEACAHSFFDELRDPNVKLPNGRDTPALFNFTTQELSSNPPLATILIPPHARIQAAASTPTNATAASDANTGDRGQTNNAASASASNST
# Procedure Summary: Kinobeads full dose-response competition binding: GSK3B
# Experimental Context: Gene Name GSK3B; EC50 with Correction, doses in nM; read-out: apparent Kd
Readout Type: Kd (nM)
Your answer is read as nM, so omit the unit and give the number.

Which measured Kd value corresponds to CCn1c(-c2nonc2N)nc2c(C#CC(C)(C)O)nc(OCCNC)cc21 [GSK949675A] ?
171

Requested field: Kd. Item: CCn1c(-c2nonc2N)nc2c(C#CC(C)(C)O)nc(OCCN)cc21 [GSK902056A]
288

====

# Test system: FLT3
# Procedure Summary: Kinobeads two-dose competition binding: FLT3
# Design: species or system human
# Experimental Context: target FLT3
Kindly state CATDS for each of the entries shown.
Would you mind answering with just the numeric figure?

Which CATDS is listed for CCN1CCN(Cc2ccc(Nc3ncc(F)c(-c4cc(F)c5nc(C)n(C(C)C)c5c4)n3)nc2)CC1 [Abemaciclib] ?
0

Value lookup for CATDS; key = N#CC1(c2ccc(NC(=O)c3cccnc3NCc3ccncc3)cc2)CCCC1 [Apatinib]
0

# CATDS lookup, item Nc1ncnc2[nH]c(-c3ccccc3)nc12 [AH5015_KCGS]
0

Find the recorded CATDS belonging to CCc1cc2c(cc1N1CCC(N3CCOCC3)CC1)C(C)(C)c1[nH]c3cc(C#N)ccc3c1C2=O [Alectinib] and report it.
0

====

# System Under Test: AAK1 (Homo sapiens)
# Construct: to maximize the representation of endogenous proteins; endogenous in cells
# Sequence (Q2M2I8 whole entry): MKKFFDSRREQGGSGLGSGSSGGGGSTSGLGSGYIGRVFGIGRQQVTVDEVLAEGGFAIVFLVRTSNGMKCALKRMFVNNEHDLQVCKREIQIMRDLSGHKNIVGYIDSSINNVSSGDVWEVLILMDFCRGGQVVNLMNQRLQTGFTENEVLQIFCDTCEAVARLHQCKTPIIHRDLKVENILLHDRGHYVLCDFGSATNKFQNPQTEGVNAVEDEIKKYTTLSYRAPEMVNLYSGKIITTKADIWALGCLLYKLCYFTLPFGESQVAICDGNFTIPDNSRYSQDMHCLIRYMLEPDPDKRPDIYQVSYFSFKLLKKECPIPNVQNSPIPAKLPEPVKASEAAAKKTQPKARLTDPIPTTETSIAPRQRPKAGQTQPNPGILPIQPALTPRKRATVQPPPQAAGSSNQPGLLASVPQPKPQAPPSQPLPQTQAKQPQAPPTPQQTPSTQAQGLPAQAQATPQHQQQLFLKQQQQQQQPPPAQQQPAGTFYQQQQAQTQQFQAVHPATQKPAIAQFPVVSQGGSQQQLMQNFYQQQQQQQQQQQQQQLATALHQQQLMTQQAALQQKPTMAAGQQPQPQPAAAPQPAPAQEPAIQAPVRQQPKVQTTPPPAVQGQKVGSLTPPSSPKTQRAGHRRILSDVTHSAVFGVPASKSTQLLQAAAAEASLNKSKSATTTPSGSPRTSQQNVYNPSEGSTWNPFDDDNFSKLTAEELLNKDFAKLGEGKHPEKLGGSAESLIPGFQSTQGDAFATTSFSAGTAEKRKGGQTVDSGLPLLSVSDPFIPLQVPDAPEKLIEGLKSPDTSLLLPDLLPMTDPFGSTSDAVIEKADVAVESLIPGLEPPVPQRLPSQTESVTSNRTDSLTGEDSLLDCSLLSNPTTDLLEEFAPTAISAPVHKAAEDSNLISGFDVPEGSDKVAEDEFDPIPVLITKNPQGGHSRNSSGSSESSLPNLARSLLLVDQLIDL
# Procedure Summary: Kinobeads two-dose competition binding: AAK1;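 also: kinobeads competition pulldown from cell lysate, compound preincubated 45 min at 4 °C, bead-bound protein measured by label-free mass spectrometry against DMSO vehicle control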
# Experimental Context: sheet CATDS matrix 2; Gene Name AAK1
Could you please report measured CATDS for the items listed next?
Just the number.

Kindly state the measured CATDS obtained for CCc1nc(-c2cccc(N(C)S(=O)(=O)c3ccccc3)c2)c(-c2ccnc(Nc3ccc(N4CCN(C(C)=O)CC4)nc3)n2)s1 [GSK1645895A] with AAK1 (Homo sapiens).
0

Entry CC(C)Nc1cc(-c2ccc3c(N)n[nH]c3c2)nc(N)n1 [GSK2221681A] , system AAK1 (Homo sapiens): what CATDS was measured?
0.2807

Value wanted: CATDS (AAK1 (Homo sapiens)) of entry O=C1Nc2ccccc2/C1=C1\CCc2cc(O)ccc21 [GR105659X]
0

Please provide the recorded CATDS for O=C(Nc1ccccc1F)NC1CCN(c2ccnc(Nc3ccc(F)cc3)n2)C1 (stereo not drawn) [GSK1379722A] , tested on AAK1 (Homo sapiens).
0

// lookup CATDS | system=AAK1 (Homo sapiens) | key= O=c1[nH]ccc2nc(N[C@@H]3CCCNC3)nc(Nc3ccc(S(=O)(=O)N4CCOCC4)cc3)c12 [GSK2177277A]
0.01814

Notebook entry, AAK1 (Homo sapiens) assay: CATDS of COc1cc(Nc2cnc(C#N)c(O[C@H](C)CN(C)C)n2)ncc1-c1cnn(C)c1 = ?
0

Give CATDS (AAK1 (Homo sapiens)) of the following compound: COc1cc(Nc2ncc(F)c(Nc3ccc4c(n3)N(COP(=O)(O)O)C(=O)C(C)(C)O4)n2)cc(OC)c1OC [Fostamatinib, reference compound]
0

API: value(readout=CATDS, system=AAK1 (Homo sapiens)) for record COc1cc2nc(-c3cc(F)ccc3O)nc(N[C@@H]3CNC[C@H]3C(C)(C)O)c2cc1OC
0

// map NCC(NC(=O)c1cc(-c2cccnc2)c(-c2ccnc3[nH]ccc23)s1)c1ccccc1 (stereo not drawn) [GSK1323434A] to recorded CATDS (system: AAK1 (Homo sapiens))
0

Notebook entry, AAK1 (Homo sapiens) assay: CATDS of Cc1c(Cn2c(C)c(C)n3c(=O)cc(N4CCOCC4)nc23)cccc1C(F)(F)F = ?
0

Please tell me: CATDS of CSc1nn2c(=O)cc(N3CCOCC3)nc2n1Cc1cccc(C(F)(F)F)c1C [GSK2363608B] , system AAK1 (Homo sapiens)?
0

Lab note: need CATDS for CC(C)C(=O)N[C@@H]1CCN(C(=O)Nc2nc3c(s2)-c2nc(-c4ccccc4Cl)ncc2CC3)C1 on AAK1 (Homo sapiens), anyone have it?
0

Query the reported CATDS for AAK1 (Homo sapiens); item: Cc1cccc(Nc2nc(N[C@H]3CCNC3)ncc2C(N)=O)c1 [GSK2197149A]
0.1293

Test system AAK1 (Homo sapiens); read-out CATDS; what value for CCCN1CCC(c2ccc(Nc3nc(Nc4cc(F)ccc4C(N)=O)c4cc[nH]c4n3)c(OC)c2)CC1 [GSK1326255A] ?
0

Hi! What's the reported CATDS for O=c1cc(N2CCOCC2)nc2n(Cc3cccc4ccccc34)ccn12 [GSK2333389A] on AAK1 (Homo sapiens)?
0

AAK1 (Homo sapiens) / CATDS / Cc1c(Cn2c3ccccc3n3c(=O)cc(N4CCOCC4)nc23)cccc1C(F)(F)F [GSK2306394A] : value?
0

Lookup: CATDS / AAK1 (Homo sapiens) / CO[C@@H](C(=O)N1Cc2n[nH]c(NC(=O)c3ccc(N4CCN(C)CC4)cc3)c2C1)c1ccccc1 [Danusertib, reference compound]
0

# returns recorded CATDS (system: AAK1 (Homo sapiens)) for CC(C)c1nc(-c2cccc(NS(=O)(=O)c3c(F)cccc3F)c2F)c(-c2ccnc(Nc3ccc(N4CCOCC4)nc3)n2)s1 [GSK2008607A]
0

API: value(readout= CATDS, system= AAK1 (Homo sapiens), query= CCOc1cc(C(=O)N2CCC(N3CCN(C)CC3)CC2)ccc1Nc1ncc2c(n1)N(C1CCCC1)c1ccccc1C(=O)N2C [ERK5-IN-1, reference compound] )
0

Form field - read-out: CATDS; system: AAK1 (Homo sapiens); submitted item: CC(C)(C)c1nc(-c2cccc(NS(=O)(=O)c3c(F)cccc3F)c2F)c(-c2ccnc(N)n2)s1 [Dabrafenib, reference compound]
0

Record lookup: for AAK1 (Homo sapiens), what CATDS belongs to Cc1cn(-c2cc(NC(=O)c3ccc4c(c3)CN(c3cncnc3)C[C@@H]4C)cc(C(F)(F)F)c2)cn1 ?
0

Enter reported CATDS observed with AAK1 (Homo sapiens) for Cc1occc1-c1nc(N)c(OC[C@@H](N)Cc2c[nH]c3ccccc23)cc1-c1cc2c(C)n[nH]c2cn1 [GSK1660450B]
0

Query the reported CATDS for AAK1 (Homo sapiens); item: Cc1ccc(C)c(NC(=O)NC2CCN(c3ccnc(Nc4ccc(F)cc4)n3)C2)c1 (stereo not drawn) [GSK1379720A]
0

Query the reported CATDS for AAK1 (Homo sapiens); item: COc1cc(N2CCN(C(C)C)CC2)ccc1Nc1nc(Nc2cccc3ncccc23)c2cc[nH]c2n1 [GSK1511931A]
0

Tell me reported CATDS for C=CC(=O)Nc1cc(-n2c(=O)ccc3cnc4ccc(-c5ccc(NS(C)(=O)=O)cc5)cc4c32)ccc1C , tested with AAK1 (Homo sapiens).
0

Give AAK1 (Homo sapiens) CATDS for CCNC(=O)O[C@H]1CN[C@H](C#Cc2cc3ncnc(Nc4ccc(OCc5cccc(F)c5)c(Cl)c4)c3s2)C1 [GSK192082A]
0

For the record NC(CNC(=O)c1cc(Br)c(-c2ccnc3[nH]ccc23)s1)c1ccccc1 (stereo not drawn) [GSK1322949A] , what value of CATDS is listed for AAK1 (Homo sapiens)?
0

Write down the reported CATDS of O=c1cc(N2CCOCC2)nc2n(Cc3cccc(Cl)c3Cl)c(C3CC3)nn12 [GSK2358994A] , test system: AAK1 (Homo sapiens).
0

Can you look up CATDS on AAK1 (Homo sapiens) for N#Cc1ccc(CCNc2nccc(-c3cccc(CN4CCNCC4)c3)n2)cc1 [GSK2137462A] ?
0

Give AAK1 (Homo sapiens) CATDS for Cc1ccc(NC(=O)c2cccc(C#N)c2)cc1-c1ccc(C(=O)Nc2ccncc2)cc1 [GSK1398463A]
0
